test: gradient 5% acetonitrile 3 min, to 50% in 2 min, to 85% in 15 min, held 3 min, 100 µL/min; conditions: column: Zorbax Extend-C18 2.1 x 50 mm; eluents: water / acetonitrile, 0.1% formic acid
readoutKind: RP-LC retention time (s)
Numeric only. Scale: s

Query block: I am curious: what RP-LC retention time value has been reported for Clc1cccc(Nc2c(-c3ccccc3)nc3cnccn23)c1 ?
Result block: 921

Query block: I am curious: what RP-LC retention time value has been reported for COc1ccc(Cl)cc1N1CC(c2nc3ccccc3n2CC(=O)N2CCOCC2)CC1=O (stereo not given) ?
Result block: 662

Query block: I am curious: what RP-LC retention time value has been reported for Cc1cc(OCC(=O)N(C)c2ccccc2)nc(N2CCN(c3ccccc3)CC2)n1 ?
Result block: 859

Query block: I am curious: what RP-LC retention time value has been reported for CCCNC(=O)C1CCN(S(=O)(=O)c2cc(C(=O)N(C)C)cs2)CC1 ?
Result block: 658

Query block: I am curious: what RP-LC retention time value has been reported for COc1ccc(-c2cc(N3CCN(C(=O)Nc4cc(OC)cc(OC)c4)CC3)ncn2)cc1 ?
Result block: 672

----------
assay: gradient 5% acetonitrile 3 min, to 50% in 2 min, to 85% in 15 min, held 3 min, 100 µL/min; settings: column: Zorbax Extend-C18 2.1 x 50 mm; eluents: water / acetonitrile, 0.1% formic acid
I'd appreciate it if you marked entries 1 when RP-LC retention time is lower than 800 s and -1 when it is not.

Query block: For Cc1noc(C)c1S(=O)(=O)N1CCCC(Cn2c(C3CC3)nc3cccnc32)C1 (stereo not drawn) , is the recorded RP-LC retention time below the cut-off of 800 s?
Result block: 1

Query block: For COc1ccc(-c2c(C(=O)NCCN3CCOCC3)nc3ccccn23)cc1 , is the recorded RP-LC retention time below the cut-off of 800 s?
Result block: 1

Query block: For O=C(c1cccc(Cl)c1)N1CCN(c2cc(-c3ccc(Cl)cc3)[nH]n2)CC1 , is the recorded RP-LC retention time below the cut-off of 800 s?
Result block: -1

Query block: For CCOC(=O)N1CCC2(CC1)OC(=O)C(C)=C2C(=O)Nc1cc(OC)cc(OC)c1 , is the recorded RP-LC retention time below the cut-off of 800 s?
Result block: -1

Query block: For CCN1CCN(CCNC(=O)c2cccn2-c2nnc(N3CCCCCC3)s2)CC1 , is the recorded RP-LC retention time below the cut-off of 800 s?
Result block: 1

Query block: For O=C(CN1CCN(Cc2ccc(F)cc2Cl)C1=O)N1CCN(c2ccc(F)cc2)CC1 , is the recorded RP-LC retention time below the cut-off of 800 s?
Result block: -1

Query block: For C=CCNC(=O)Cc1nnc2cc(-c3nc(C4CC4)no3)ccn12 , is the recorded RP-LC retention time below the cut-off of 800 s?
Result block: 1

Query block: For Cc1nnc(N2CCCC(C(=O)NCc3cccc(F)c3)C2)c2nn(-c3ccc(Cl)cc3)c(C)c12 (stereo not drawn) , is the recorded RP-LC retention time below the cut-off of 800 s?
Result block: 1

Query block: For Cc1ccc(NC(=O)N2CCCC(C)(C(=O)NCc3ccccc3)C2)cc1F (stereo not drawn) , is the recorded RP-LC retention time below the cut-off of 800 s?
Result block: -1

Query block: For O=C(NCc1ccco1)C1CCCN(c2ccc(-c3ccccc3)nn2)C1 (stereo not drawn) , is the recorded RP-LC retention time below the cut-off of 800 s?
Result block: 1

Query block: For CCc1nn(C)c(=O)c2cc(S(=O)(=O)NCc3ccc(Cl)cc3)cn12 , is the recorded RP-LC retention time below the cut-off of 800 s?
Result block: -1

Query block: For COC(=O)c1ccc(NC(=O)N2CC(Oc3cccc(-c4nc(C)no4)c3)C2)cc1 , is the recorded RP-LC retention time below the cut-off of 800 s?
Result block: -1

Query block: For O=C1CC(c2cc(F)cc(F)c2)Cc2nc(N3CCN(c4ccccc4F)CC3)ncc21 (stereo not drawn) , is the recorded RP-LC retention time below the cut-off of 800 s?
Result block: -1

Query block: For O=C(Cc1ccsc1)NCc1cnoc1-c1ccc(F)cc1 , is the recorded RP-LC retention time below the cut-off of 800 s?
Result block: -1

Query block: For CC(=O)N1CCN(C(=O)CN2C(=O)C3CCCCN3c3ccc(S(=O)(=O)N(C)C)cc32)CC1 (stereo not drawn) , is the recorded RP-LC retention time below the cut-off of 800 s?
Result block: 1

Query block: For CCc1nc(-c2csc(S(=O)(=O)N3CCC(C(=O)NC4CCCCC4)CC3)c2)no1 , is the recorded RP-LC retention time below the cut-off of 800 s?
Result block: -1

Query block: For CCc1noc(-c2ccc(SCC(=O)N3CCCCCC3)nc2)n1 , is the recorded RP-LC retention time below the cut-off of 800 s?
Result block: -1

Query block: For Cn1c(N2CCCC(C(=O)N3CCN(c4ccccc4F)CC3)C2)cc(=O)n(C)c1=O (stereo not drawn) , is the recorded RP-LC retention time below the cut-off of 800 s?
Result block: 1

Query block: For Cc1cccc(OCc2nc(-c3cccc(-c4ccn[nH]4)c3)no2)c1 , is the recorded RP-LC retention time below the cut-off of 800 s?
Result block: -1

Query block: For CC1=C(c2ccc(C)cc2)S(=O)(=O)N=C1N1CCCN(C(=O)CC(C)(C)C)CC1 , is the recorded RP-LC retention time below the cut-off of 800 s?
Result block: -1

Query block: For CCN(C(=O)Cc1ccccc1)c1nc(-c2ccccc2)cs1 , is the recorded RP-LC retention time below the cut-off of 800 s?
Result block: -1

Query block: For COc1ccccc1CCC(=O)N1C[C@@H]2C[C@H](NS(C)(=O)=O)[C@H]1C2 , is the recorded RP-LC retention time below the cut-off of 800 s?
Result block: 1

Query block: For CCN1CCN(C(=O)Cc2c(C)nn(-c3nc(-c4ccc(C)cc4)cs3)c2C)CC1 , is the recorded RP-LC retention time below the cut-off of 800 s?
Result block: 1

Query block: For COc1cccc(-c2nc(C3CCN(C(=O)C4COc5ccccc5O4)CC3)no2)c1 (stereo not drawn) , is the recorded RP-LC retention time below the cut-off of 800 s?
Result block: -1

Query block: For Cc1ccc(C(=O)Nc2cccc(OCc3nnc(-c4ccc(Cl)cc4)o3)c2)s1 , is the recorded RP-LC retention time below the cut-off of 800 s?
Result block: -1

Query block: For CCc1ccc(NC(=O)Cn2c(=O)nc(N3CCC(C)CC3)c3ccccc32)cc1 , is the recorded RP-LC retention time below the cut-off of 800 s?
Result block: -1

Query block: For COc1cc(C(CC(=O)NC2CCCC2)N2Cc3ccccc3C2=O)cc(OC)c1OC (stereo not drawn) , is the recorded RP-LC retention time below the cut-off of 800 s?
Result block: 1

Query block: For Cc1cc2c(c(=O)n(-c3ccccc3)c(=O)n2CC(=O)Nc2cccc(Cl)c2)n1C , is the recorded RP-LC retention time below the cut-off of 800 s?
Result block: -1

Query block: For Cc1cc(=O)n(CC(=O)Nc2cccc(Cl)c2)c(N2CCc3ccccc3C2)n1 , is the recorded RP-LC retention time below the cut-off of 800 s?
Result block: -1

Query block: For Cc1ccnc(Nc2nc(C)c3ccccc3n2)n1 , is the recorded RP-LC retention time below the cut-off of 800 s?
Result block: 1

Query block: For O=C(c1ccc(S(=O)(=O)c2cccc(Cl)c2)c([N+](=O)[O-])c1)N1CCN(c2ccccn2)CC1 , is the recorded RP-LC retention time below the cut-off of 800 s?
Result block: 1

Query block: For Cc1ccc(NC(=O)N2CCC3(CC2)NC(=O)c2ccccc2O3)cc1Cl , is the recorded RP-LC retention time below the cut-off of 800 s?
Result block: -1

Query block: For CCN(CC)C(=O)c1ccc(-c2nnc3ccc(NC(=O)C4CCC4)cn23)cc1 , is the recorded RP-LC retention time below the cut-off of 800 s?
Result block: 1

Query block: For CSc1cccc(NC(=O)N2CCc3c(c(-c4nc(C5CC5)no4)nn3C)C2)c1 , is the recorded RP-LC retention time below the cut-off of 800 s?
Result block: -1

Query block: For CN(CC(=O)Nc1ccc(F)c(F)c1F)c1nc2c(Cl)cccc2s1 , is the recorded RP-LC retention time below the cut-off of 800 s?
Result block: -1

Query block: For CCn1c(C(=O)NCCN2CCCCCC2)c(N2CCCC2=O)c2cc(F)ccc21 , is the recorded RP-LC retention time below the cut-off of 800 s?
Result block: 1
